The reported measurements were obtained from patent US9657015B2.

- ASSAY DETAILS: Aqueous solubility (High Throughput Method)
- Type: physicochemical
- CONDITION NOTES: McIlvaine buffer pH 6.8 with 2.5% DMSO, aqueous buffer, kinetic from dmso stock; McIlvaine buffer pH 6.8, 2.5% DMSO, 24 h shaking
Kindly return class 1 if reported solubility at 24 h is no lower than 0.06 mg/mL; return class 0 if it is lower.

Identify whether the reported solubility at 24 h of the following molecule is 0.06 mg/mL or greater: CN1CCC2=C(C1=O)C(c1ccc(C#N)cc1-c1cnn(C)c1)N(C)C(=O)N2c1cccc(C(F)(F)F)c1 (stereo not shown)
class 0

Identify whether the reported solubility at 24 h of the following molecule is 0.06 mg/mL or greater: CN1C(=O)N(c2cccc(C(F)(F)F)c2)C2=C(C(=O)NCC2)[C@H]1c1ccc(C#N)cc1CO [Example 32A]
class 0

Identify whether the reported solubility at 24 h of the following molecule is 0.06 mg/mL or greater: N#Cc1ccc([C@H]2NC(=O)N(c3cccc(C(F)F)c3)C3=C2C(=O)NCC3)cc1
class 1

Identify whether the reported solubility at 24 h of the following molecule is 0.06 mg/mL or greater: N#Cc1ccc([C@H]2NC(=O)N(c3cccc(C(F)(F)F)c3)C3=C2C(=O)NCC3)cc1
class 1

Identify whether the reported solubility at 24 h of the following molecule is 0.06 mg/mL or greater: CN1CCC2=C(C1=O)C(c1ccc(C#N)cc1CO)N(C)C(=O)N2c1cccc(C(F)(F)F)c1 (stereo not shown)
class 1

Identify whether the reported solubility at 24 h of the following molecule is 0.06 mg/mL or greater: CN1C(=O)N(c2cccc(C(F)(F)F)c2)C2=C(C(=O)NCC2)[C@H]1c1ccc(C#N)cc1-c1cnn(C)c1 [Example 31A]
class 0

Identify whether the reported solubility at 24 h of the following molecule is 0.06 mg/mL or greater: CN1C(=O)N(c2cccc(C(F)(F)F)c2)C2=C(C(=O)NCC2)[C@H]1c1ccc(C#N)cc1
class 1

Identify whether the reported solubility at 24 h of the following molecule is 0.06 mg/mL or greater: CN1CCC2=C(C1=O)C(c1ccc(C#N)cc1-c1ccc(=O)n(C)n1)N(C)C(=O)N2c1cccc(C(F)(F)F)c1 (stereo not shown)
class 1

Identify whether the reported solubility at 24 h of the following molecule is 0.06 mg/mL or greater: CN1CCC2=C(C1=O)[C@@H](c1ccc(C#N)cc1)NC(=O)N2c1cccc(C(F)(F)F)c1
class 1

Identify whether the reported solubility at 24 h of the following molecule is 0.06 mg/mL or greater: COC(=O)CN1C(=O)N(c2cccc(C(F)(F)F)c2)C2=C(C(=O)NCC2)C1c1ccc(C#N)cc1 (stereo not shown)
class 1

###

Would you kindly list pIC50 for each of these compounds?
- ASSAYED SYSTEM: neutrophil elastase in human plasma (Homo sapiens (Human))
- Sequence (P08246 30-247): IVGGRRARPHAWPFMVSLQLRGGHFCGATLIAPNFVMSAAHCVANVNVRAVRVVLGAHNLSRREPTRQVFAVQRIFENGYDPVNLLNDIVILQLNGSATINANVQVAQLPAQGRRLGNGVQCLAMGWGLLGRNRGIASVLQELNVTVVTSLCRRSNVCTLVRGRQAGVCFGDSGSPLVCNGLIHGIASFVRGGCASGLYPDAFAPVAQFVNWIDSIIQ
- ASSAY DETAILS: Neutrophil elastase inhibitory activity in human plasma
- CONDITION NOTES: human plasma assay (zymosan-stimulated blood plasma), substrate 250 μM, pH 7.5
pIC50: −log10 of the molar value.

Endpoint output: pIC50 of CN1C(=O)N(c2cccc(C(F)(F)F)c2)C2=C(C(=O)NCC2)C1c1ccc(C#N)cc1-c1ccncn1 (centres unmarked) . Value?
> 9.00

Endpoint output: pIC50 of CN1CCC2=C(C1=O)C(c1ccc(C#N)cc1C(N)=O)N(C)C(=O)N2c1cccc(C(F)(F)F)c1 (centres unmarked) . Value?
> 9.00

Endpoint output: pIC50 of N#Cc1ccc(C2C3=C(CCNC3=O)N(c3cccc(C(F)(F)F)c3)C(=O)N2CC(=O)N2CCOCC2)cc1 (centres unmarked) . Value?
> 9.00

Endpoint output: pIC50 of CN1C(=O)N(c2cccc(C(F)(F)F)c2)C2=C(C(=O)NCC2)C1c1ccc(C#N)cc1S(C)(=O)=O (centres unmarked) . Value?
> 9.00

Endpoint output: pIC50 of Cn1ncc2c1CN(C(=O)CN1C(=O)N(c3cccc(C(F)(F)F)c3)C3=C(C(=O)NCC3)C1c1ccc(C#N)cc1)C2 (centres unmarked) . Value?
9.00

Endpoint output: pIC50 of CN1C(=O)N(c2cccc(C(F)F)c2)C2=C(C(=O)NCC2)[C@H]1c1ccc(C#N)cc1 . Value?
> 9.00

Endpoint output: pIC50 of N#Cc1ccc(C2NC(=O)N(c3cccc(C(F)(F)F)c3)C3=C2C(=O)NCC3)c(C(F)(F)F)c1 (centres unmarked) . Value?
> 9.00

Endpoint output: pIC50 of N#Cc1ccc(C2C3=C(CCNC3=O)N(c3cccc(C(F)(F)F)c3)C(=O)N2CC(=O)N2CCCCC2)cc1 (centres unmarked) . Value?
> 9.00

Endpoint output: pIC50 of Cn1cc(-c2cc(C#N)ccc2C2NC(=O)N(c3cccc(C(F)(F)F)c3)C3=C2C(=O)NCC3)cn1 (centres unmarked) . Value?
8.85

Endpoint output: pIC50 of CN1C(=O)N(c2cccc(C(F)(F)F)c2)C2=C(C(=O)NCC2)C1c1ccc(C#N)cc1CO (racemic) . Value?
> 9.00

Endpoint output: pIC50 of CN1C(=O)N(c2cccc(C(F)(F)F)c2)C2=C(C(=O)NCC2)C1c1ccc(C#N)cc1-c1ccncc1 (centres unmarked) . Value?
8.28

###

- ASSAYED SYSTEM: neutrophil elastase in human plasma (Homo sapiens (Human))
- ASSAY DETAILS: Neutrophil elastase inhibitory activity in human plasma
- CONDITION NOTES: human plasma assay (zymosan-stimulated blood plasma), substrate 250 μM, pH 7.5
pIC50: −log10 of the molar value.
Would you kindly list pIC50 for each of these molecules?

Give pIC50 (neutrophil elastase in human plasma (Homo sapiens (Human))) of the following molecule: N#Cc1ccc(C2C3=C(CCNC3=O)N(c3cccc(C(F)(F)F)c3)C(=O)N2CC(=O)N2CC3CC3C2)cc1 (stereo not drawn) [Example 12.5]
> 9.00

Give pIC50 (neutrophil elastase in human plasma (Homo sapiens (Human))) of the following molecule: CN1C(=O)N(c2cccc(C(F)(F)F)c2)C2=C(C(=O)NCC2)[C@H]1c1ccc(C#N)cc1CO [Example 32A]
> 9.00

Give pIC50 (neutrophil elastase in human plasma (Homo sapiens (Human))) of the following molecule: CN(C)C(=O)CN1C(=O)N(c2cccc(C(F)(F)F)c2)C2=C(C(=O)NCC2)C1c1ccc(C#N)cc1 (stereo not drawn) [Example 12.1]
> 9.00

Give pIC50 (neutrophil elastase in human plasma (Homo sapiens (Human))) of the following molecule: CN1C(=O)N(c2cccc(C(F)(F)F)c2)C2=C(C(=O)NCC2)[C@H]1c1ccc(C#N)cc1-c1cnn(C)c1 [Example 31A]
> 9.00

Give pIC50 (neutrophil elastase in human plasma (Homo sapiens (Human))) of the following molecule: N#Cc1ccc(C2NC(=O)N(c3cccc(C(F)(F)F)c3)C3=C2C(=O)NCC3)c(-c2cnco2)c1 (stereo not drawn) [Example 23]
8.96

Give pIC50 (neutrophil elastase in human plasma (Homo sapiens (Human))) of the following molecule: CN1C(=O)N(c2cccc(C(F)(F)F)c2)C2=C(C(=O)NCC2)[C@H]1c1ccc(C#N)cc1-c1cnco1 [Example 30A]
> 9.00

###

- ASSAY DETAILS: Aqueous solubility (High Throughput Method)
- Assay type: physicochemical
- CONDITION NOTES: McIlvaine buffer pH 6.8 with 2.5% DMSO, aqueous buffer, kinetic from dmso stock; McIlvaine buffer pH 6.8, 2.5% DMSO, 24 h shaking
- Procedure: Assay for Determination of Aqueous Solubility (“High Throughput Method”) Starting from a 10 mM DMSO stock solution, aliquots are diluted with acetonitrile/water (1/1) and McIlvaine buffer pH 6.8, respectively. After 24 h of shaking, the solutions or suspensions are filtered and analyzed by LC-UV. The amount dissolved in buffer is compared to the amount dissolved in the acetonitrile/water (1/1) solution. Solubility is measured from 0.001 to 0.125 mg/ml at a DMSO concentration of 2.5%. […]
READOUT NAME: solubility at 24 h (µg/mL)
Give the value in µg/mL but do not write µg/mL after it.

Endpoint output: solubility at 24 h of CN1C(=O)N(c2cccc(C(F)F)c2)C2=C(C(=O)NCC2)[C@H]1c1ccc(C#N)cc1 . Value?
61

Endpoint output: solubility at 24 h of CN1C(=O)N(c2cccc(C(F)(F)F)c2)C2=C(C(=O)NCC2)[C@H]1c1ccc(C#N)cc1-c1cnco1 [Example 30A] . Value?
60

Endpoint output: solubility at 24 h of CN1CCC2=C(C1=O)C(c1ccc(C#N)cc1-c1cnco1)N(C)C(=O)N2c1cccc(C(F)(F)F)c1 (stereo not drawn) . Value?
60
